tested on: Motor activity (apomorphine hydrochloride); assay: Antiapomorphine effect, Experiment 1: motor activity (Automex) after apomorphine; format: in vivo, male dd mice; conditions: 30 mg/kg intraperitoneal, 30 min before 0.5 mg/kg s.c. apomorphine hydrochloride, activity during 30 minutes, control 566

| Compound | Motor Activity |
| --- | --- |
| O=C1CCN(C2CCN(CC3COC(c4ccc(F)cc4)C3)CC2)C(=O)N1c1ccccc1 (centres unmarked) | 28 |
| O=c1[nH]c2cc(Cl)ccc2n1C1CCN(CC2COC(c3ccc(F)cc3)C2)CC1 (centres unmarked) | 23 |
| O=c1[nH]c2ccccc2n1C1CCN(CC2COC(c3ccc(F)cc3)C2)CC1 (centres unmarked) | 4 |
| O=c1[nH]c2cc(Cl)ccc2n1C1CCN(CC2CCC(c3ccc(F)cc3)O2)CC1 (centres unmarked) | 5 |
| O=c1[nH]c2cc(Cl)ccc2n1C1CCN(C[C@@H]2CO[C@H](c3ccc(F)cc3)C2)CC1 (relative stereo) | 5 |
| O=C1NCN(c2ccccc2)C12CCN(CC1COC(c3ccc(F)cc3)C1)CC2 (centres unmarked) | 0 |
| Fc1ccc(C2CC(CN3CCC(n4c(=S)[nH]c5ccccc54)CC3)CO2)cc1 (centres unmarked) | 1 |
| O=c1[nH]c2cc(Cl)ccc2n1C1CCN(C[C@H]2CO[C@H](c3ccc(F)cc3)C2)CC1 (relative stereo) | 8 |
